Origin of measurements: patent US6548522B1

STUDY SYSTEM: UniProt:P23385
Sequence (P23385 19-1199): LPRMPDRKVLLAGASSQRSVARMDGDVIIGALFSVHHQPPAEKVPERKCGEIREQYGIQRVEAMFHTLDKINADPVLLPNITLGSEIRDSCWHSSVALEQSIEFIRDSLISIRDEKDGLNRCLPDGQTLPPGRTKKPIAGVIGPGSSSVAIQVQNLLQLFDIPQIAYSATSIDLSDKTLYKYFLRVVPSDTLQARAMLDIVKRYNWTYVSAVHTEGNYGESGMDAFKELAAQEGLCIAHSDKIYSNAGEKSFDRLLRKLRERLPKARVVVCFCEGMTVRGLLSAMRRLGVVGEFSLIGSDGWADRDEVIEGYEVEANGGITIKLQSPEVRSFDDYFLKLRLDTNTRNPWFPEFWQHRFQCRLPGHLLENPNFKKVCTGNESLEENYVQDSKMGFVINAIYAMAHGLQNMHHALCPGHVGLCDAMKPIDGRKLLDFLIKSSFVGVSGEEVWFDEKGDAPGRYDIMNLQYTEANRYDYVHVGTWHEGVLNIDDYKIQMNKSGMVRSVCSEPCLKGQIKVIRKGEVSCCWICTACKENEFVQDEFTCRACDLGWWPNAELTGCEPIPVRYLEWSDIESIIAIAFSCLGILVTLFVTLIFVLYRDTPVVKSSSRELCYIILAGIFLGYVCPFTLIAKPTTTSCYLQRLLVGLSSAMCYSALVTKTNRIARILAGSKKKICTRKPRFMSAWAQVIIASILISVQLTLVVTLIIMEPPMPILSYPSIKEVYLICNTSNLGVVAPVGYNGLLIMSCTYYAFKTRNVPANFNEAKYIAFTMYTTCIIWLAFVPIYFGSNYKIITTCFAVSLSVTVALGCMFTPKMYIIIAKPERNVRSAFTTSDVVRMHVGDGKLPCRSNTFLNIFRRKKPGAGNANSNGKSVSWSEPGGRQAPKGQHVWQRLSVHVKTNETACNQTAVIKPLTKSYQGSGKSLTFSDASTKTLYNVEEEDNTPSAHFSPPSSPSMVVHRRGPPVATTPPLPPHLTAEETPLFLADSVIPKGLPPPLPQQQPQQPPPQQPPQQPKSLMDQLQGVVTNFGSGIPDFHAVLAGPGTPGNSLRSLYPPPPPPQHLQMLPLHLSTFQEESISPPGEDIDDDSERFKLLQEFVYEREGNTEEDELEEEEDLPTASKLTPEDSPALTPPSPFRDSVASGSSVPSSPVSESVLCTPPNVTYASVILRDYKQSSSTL
ASSAY EXPLANATION: [Ca2+]i measurement (FLIPR) on mGlu1a transfected EBNA cells
SETUP CONDITIONS: mGlu1a transfected EBNA cells, Fluo-3 AM; antagonists tested against 10 μM glutamate as agonist
PROPERTY MEASURED: EC50 (µM)

COMPOUND	EC50 [µM]
CCCNC(=O)C(C)(c1ccccc1)c1ccccc1 [Example 3, 2,2-Diphenyl-N-propyl-propionamide]	12.7
COCCCCNC(=O)C(c1ccccc1)c1ccccc1 [Example 19]	2.98
O=C(NC1CC1)C(c1ccccc1)c1ccccc1 [Example 7, N-Cyclopropyl-2,2-diphenyl-acetamide]	17

A = CCCOCCNC(=O)C(c1ccccc1)c1ccccc1 [Example 21]
B = O=C(NCCCC(F)(F)F)C(c1ccccc1)c1ccccc1 [Example 26]
C = CCCNC(=O)C(c1ccccc1)c1ccccc1 [Example 2, 2,2-Diphenyl-N-propyl-acetamide]
D = CCCCCNC(=O)C(C)(c1ccccc1)c1ccccc1 [Example 4, N-Pentyl-2,2-diphenyl-propionamide]
List from greatest to least EC50. Please express your ranking as an ordered list of the labels.
B, A, C, D
(B: 15 µM, A: 3.13 µM, C: 2.12 µM, D: 1 µM)
